System: chick chorioallantoic membrane (CAM)
Measurement description: Chick chorioallantoic membrane (CAM) assay, CAM area
Cond: CAM area, day 5-6 CAMs, 24 hours
Record form. Attribute: LOAEL (Molar). Fill in for each entry.
Give just the number in µM; leave the unit off.

What LOAEL (Molar) appears in the records for this molecule with chick chorioallantoic membrane (CAM)? Cc1cc(C)nc(C)c1 [2,4,6-trimethylpyridine]
50

Another molecule to look at: Cc1cccnc1C [2,3-dimethylpyridine]
50

Another molecule to look at: c1cc(-c2ccncc2)ccn1 [4,4-bipyridine]
500

Another molecule to look at: CCc1cccnc1 [3-ethylpyridine]
5e-06

Another molecule to look at: C=Cc1ccncc1 [4-ethenylpyridine]
50

Another molecule to look at: c1cncc([C@@H]2CCCN2)c1 [nornicotine, 3-(1-pyrrolidin-2-yl)pyridine]
50
